Numbers sourced from patent EP0199451B1.

- assay.overview: Toxicity assay (LD50) in rats
- measurement.parameters: rat, in vivo
readout.type: LD50

Prompt line: Entry `Cc1cn([C@H]2C[C@H](N=[N+]=[N-])[C@@H](CO)O2)c(=O)[nH]c1=O` has what LD50?
Response line: > 750 mg/kg
